Target: feline FcRn complex (FcRn-α subunit and β-microglobulin), biotin labeled (feline)
Test: SPR, pH 7.4
Observable: pKd
The quantity pKd is defined as the negative base-10 logarithm of the molar concentration.

>  <Binder>
feline IgG1a S252Y/S434W/Q311W (antibody, part only; not given: Variable domains, not shown: another chain or arm of the molecule) constant: ASTTAPSVFPLAPSCGTTSGATVALACLVLGYFPEPVTVSWNSGALTSGVHTFPAVLQASGLYSLSSMVTVPSSRWLSDTFTCNVAHPPSNTKVDKTVRKTDHPPGPKPCDCPKCPPPEMLGGPSIFIFPPKPKDTLYISRTPEVTCLVVDLGPDDSDVQITWFVDNTQVYTAKTSPREEQFNSTYRVVSVLPILHWDWLKGKEFKCKVNSKSLPSPIERTISKAKGQPHEPQVYVLPPAQEELSRNKVSVTCLIKSFHPPDIAVEWEITGQPEPENNYRTTPPQLDSDGTYFVYSKLSVDRSHWQRGNTYTCSVSHEALHWHHTQKSLTQSPGK

>  <Observable>
pKd

>  <Observed value>
5.66

$$$$

Query string: Reported pKd, binder feline IgG1a S252Y/D312P/L314K (antibody, part only; not given: Variable domains, not shown: another chain or arm of the molecule) constant: ASTTAPSVFPLAPSCGTTSGATVALACLVLGYFPEPVTVSWNSGALTSGVHTFPAVLQASGLYSLSSMVTVPSSRWLSDTFTCNVAHPPSNTKVDKTVRKTDHPPGPKPCDCPKCPPPEMLGGPSIFIFPPKPKDTLYISRTPEVTCLVVDLGPDDSDVQITWFVDNTQVYTAKTSPREEQFNSTYRVVSVLPILHQPWKKGKEFKCKVNSKSLPSPIERTISKAKGQPHEPQVYVLPPAQEELSRNKVSVTCLIKSFHPPDIAVEWEITGQPEPENNYRTTPPQLDSDGTYFVYSKLSVDRSHWQRGNTYTCSVSHEALHSHHTQKSLTQSPGK : ____
Result string: 5.74
